tested on: MS2 coat protein; assay: apparent KD of MS2 coat protein; designed switch direction (-1 OFF switch, 1 ON switch): -1; higher = weaker reporter binding; conditions: Eterna round: R95; input ligand: FMN 200 uM
Rule: apparent KD of MS2 coat protein of 0.03 µM or more gives 1; anything lower gives -1.

residue_codes="AGAAGUAGUAUCCGAUCCUACAUGAGGAUCACCCAUGUAGCUAGACGUGCACGCGAUGCUCGUCAGACUACCAGAUG [salish99_TOv1_r3_030] (puzzle: Sensor v3, turn-off variant 1)" class_name=1
residue_codes="AGUACUAACACGAAAGUGUUAGUGCAAUAAGCUUGUGAAACAUGAGGAUCACCCAUGUCCUCAUAAGCUCGUCUUAU [salish99_TOv2_r3_039] (puzzle: Sensor v3, turn-off variant 2)" class_name=-1
residue_codes="GGUUGGCGAGGAUAUACAUGAGGAUCACCCAUGUGAGAGAAAAAAGUGAGGCAGAAAAGUAGAAGGCGCUGACG [salish99_ex3_r3_031] (puzzle: Exclusion 3)" class_name=1
residue_codes="AAUUAACAAGCGAGAUCCUACAUGAGGAUCACCCAUGUGCUCGUCUUAUAAAGUACUAUCACGAAAGUGAUAGUACA [Mat - Sensor v3 - turn-off var 1 - Eli Mod - D64] (puzzle: Sensor v3, turn-off variant 1)" class_name=-1
residue_codes="AAAAGAAGUGUUAGGAUAUGUGGAAGCAGAAAGACACAGAAGGAACAUGAGGAUCACCCAUGUGACCAAAGAAC [Maenonis] (puzzle: Brourd's mod of Exclusion 4)" class_name=-1

* * *

tested on: MS2 coat protein; test: apparent KD of MS2 coat protein; designed switch direction (-1 OFF switch, 1 ON switch): 1; higher = weaker reporter binding; conditions: input ligand: microRNA oligo, concentration not stated
Category key, based on recorded apparent KD of MS2 coat protein: low: < 40 nM; medium: ≥ 40 nM and < 100 nM; high: ≥ 100 nM

residue_codes="UUUGAAUUGCAAGGAUAUUGAUAACAUGAGGAUCACCCAUGUAAUUGUUCGAGUUAGAUUAGUUACAAGAAGGUGCUAUUGUUU [JR_SSNG2_Sub039] (Eterna round: R96, puzzle: Same State NG 2)" experimental_target="MS2 coat protein" class_name=high
residue_codes="AUAACAAUGGCAGGAUAUGGGAUUGGAAGUGUUCCAGAAGGGCCAUAACGGCGAUGGACAUGAGGAUCACCCAUGUCUUAGCCU [MOD2 Powerstrip SSNG 1.4] (Eterna round: R96, puzzle: Same State NG 1)" experimental_target="MS2 coat protein" class_name=low
residue_codes="UUAAUGAUGAAAGGAUAUACAUGAGGAAUUCUCGUAGAAGGUUCAUGACAUGAGGAUCACCCAUGUAUCGCUCCGUAGAGCGUA [JL SSNG1 1.13] (Eterna round: R96, puzzle: Same State NG 1)" experimental_target="MS2 coat protein" class_name=low
residue_codes="CUACGCGCCGCAGGAUAUGCCGACCCGUGUUGAGCAGAAGGGCGCAACAUGAGGAUCACCCAUGUUGAAAGAGCGCAAAAUUAA [Zaesre] (Eterna round: R96, puzzle: Same State NG 1)" experimental_target="MS2 coat protein" class_name=low
residue_codes="ACAUGAAAUACAGGAUAUUUUGUACCUACAUGUGACAUGAGGAUCACCCAUGUGGUAAGUAUAAGAGAGAAGGGUAAGAUAUGU [Equivalence 4 - Jieux - Same State NG 2] (Eterna round: R96, puzzle: Same State NG 2)" experimental_target="MS2 coat protein" class_name=medium
residue_codes="GUAACAUGACGAGGAUAUGGAACAUGAGGAUCACCCAUGUAUGUUCCAUAACGCGAAUGACGAAUCCAGAAGGCGUCGUGAAUG [Mat - Same State NG 2 - JL mod - D29] (Eterna round: R96, puzzle: Same State NG 2)" experimental_target="MS2 coat protein" class_name=high
residue_codes="AACAUGAGGAUCACCCAUGUGAAAUACUGAGGCAGCUCAGGGAAGGAUAUGGUUGACACCCUCGACCAGAAGGUCCAAAAUAAA [Aquorxe] (Eterna round: R96, puzzle: Same State NG 3)" experimental_target="MS2 coat protein" class_name=high
residue_codes="UGCUACUGGGUAGGAUAUUUAGGAUAUGGGAAAGACUAAGUCUGUAGGUCACCUAACCCAGAAGGAGAGAAGGACCAUUCAGCU [pwkr ssNG2 2FMN + F9.33] (Eterna round: R96, puzzle: Same State NG 2)" experimental_target="MS2 coat protein" class_name=medium
residue_codes="UUGAUGAACUGAGGAUAUCGAGUCGUCUGAUUAUACAUGAGGAUCACCCAUGUGGGUUGUGGUAUCGAGAAGGCAGAUUACUUA [JR_SSNG2_Sub032] (Eterna round: R96, puzzle: Same State NG 2)" experimental_target="MS2 coat protein" class_name=high
residue_codes="GAGCCAGUCCGAGGAUAUUCAUAUACAUGAGGAUCACCCAUGUAGGCUCAGAAAAGAGAGCCUUGGGAGAAGGCGGACUGGCUC [Xeonanisa<<4] (Eterna round: R96, puzzle: Same State NG 2)" experimental_target="MS2 coat protein" class_name=low

* * *

tested on: MS2 coat protein; assay: apparent KD of MS2 coat protein; higher = weaker reporter binding; settings: Eterna round: R107; input ligand: theophylline 20 uM
Rule: apparent KD of MS2 coat protein of 70 nM or more gives Condition met; anything lower gives Condition not met.

residue_codes="AGCGAGAUCCGUGAUACCAGCUACAUGAGGAUCACCCAUGUGAGCGCGAAAGUGCUGUGUAGCCCUUGGCAGCACAGUGGAUCUC [#29 Exclusion-TheophyllineB]" class_name="Condition not met"
residue_codes="ACAUGAGGAUCACCCAUGUGUGUAAAUCCUCGAGGACCGGUACGGCCGCCACUCGAACGAGUGUAAGUUGAAUGUAACAUUCAAC [SS Trp A v1]" class_name="Condition met"
residue_codes="UCAAUAAUUAGAUUGUUACAUGUAUCAGAAGGAGCGUGAGUAAUCACAGGUAGGUCGCUGUUAACAUGAGGAUCACCCAUGUUUU [JR_ExcArginiA_Sub009]" class_name="Condition not met"
residue_codes="UAAUAAGUACCGGUUCUCAGAUCCUCAUGUCGAGGACCGGUACGGCCGCCACUCGAAACAUGAGGAUCACCCAUGUAAUAAUAAU [#07 Exclusion Tryptophan A]" class_name="Condition not met"
residue_codes="GAAUCUACAAACGAUACCAGAUCCGGCUGCCACAUGAGGAUCACCCAUGUCUAGCGACUCAUCCCUUGGCAGCGUGUGCAUCCCG [theeternabot_sameState_MS2_Theo_B_37]" class_name="Condition met"
residue_codes="CUAUAAGUACCGGUCCUCAGAUCCUCAUGACGAGGACCGGUACGGCCGCCACUCGAAACAUGAGGAUCACCCAUGUAAUAAUACC [Brourdmod16]" class_name="Condition not met"
residue_codes="GUACAUGAGGAUCACCCAUGUAUAGUUGAAGGAGCGACCAGAGGGUCAGGUAGGUCGCAGCACAUGGUGUAAACCCGUGUAUGCC [#1 Exclusion - Arginine A Attempt #22 (Inspired by Pi)]" class_name="Condition not met"
residue_codes="GCCGGACUUUCGGCCGCCACUGAGAGAGUCGUGUGAACAUGAGGAUCACCCAUGUAAUAUAUAUACAGGACCGGGAGGGUCCGGC [4.T]" class_name="Condition not met"
residue_codes="CUAAUUAUAUCGGCCGCCACUUACUCAUGAGGUAACAACAUGAGGAUCACCCAUGUUUGAGGAUCAAGGACCGGGAUAUAAUUAG [AstrosSSTry#24]" class_name="Condition not met"

* * *

system: MS2 coat protein; experiment: apparent KD of MS2 coat protein; higher = weaker reporter binding; conditions: Eterna round: R107; input ligand: none
Quantity measured: apparent KD of MS2 coat protein (nM)

residue_codes="UUAUGCAGGUCGGCCGCCACUACACACAUGAGGAUCACCCAUGUAGUUACUGGGUGAAGUGGCAGUAGGACCGGGACCUGCACAC [Brourdmod14]" quantity_measured="apparent KD of MS2 coat protein" obs_value=470
residue_codes="AGGACAUCGGGAAGGAGCGCAUCCAAACCACACAUGAGGAUCACCCAUGUAUAAAUAUGCAUGCAGGUAGGUCGCCCGGUGUCUC [Veaza]" quantity_measured="apparent KD of MS2 coat protein" obs_value=109
residue_codes="AAUAAUAGGUGAUCUUAAGUCGUACCGUAACGAGGACCGGUACGGCCGCCACUCGAACAUGAGGAUCACCCAUGUAUGUAUGAUA [whbob_SS_trypto A_f5]" quantity_measured="apparent KD of MS2 coat protein" obs_value=168
residue_codes="ACAUGAGGAUCACCCAUGUACAUGAGGGAAGGAGCGGUACAUGAGCCAGGUAGGUCGCCCAUGAGCAUCAGCCAUGUACAUCAGC [vv,mmullin]" quantity_measured="apparent KD of MS2 coat protein" obs_value=115
residue_codes="GCAUCCUAGUCGGCCGCCACUGCAUCACCGGUCCUAGGUGAUCAACAUGAGGAUCACCCAUGUAGCAGGACCGGGACUAGGAUGC [(Trp1)-(MT)''-(MT)'-(Ms2)-(Trp2)_Design2]" quantity_measured="apparent KD of MS2 coat protein" obs_value=491
residue_codes="AGUCUUGUAGGAAGGAGCGCAUACUUCACAUGAGGAUCACCCAUGUCAAGACGUGAGUCAGUGCAGGUAGGUCGCCUAACUAAGA [Same State - Arginine B (Freestyle 14)]" quantity_measured="apparent KD of MS2 coat protein" obs_value=17.3
residue_codes="GUCGGUACGUCGGCAAAGCCGAUGUGCCAGCGAGGACCGGUACGGCCGCCACUCGUACAUGAGGAUCACCCAUGUCCGGUCCGAC [Omei Trp SS A C v4]" quantity_measured="apparent KD of MS2 coat protein" obs_value=134
residue_codes="GUUGUAUACUCGGCCGCCACUGAGAGAGUCAUGUAAACAUGAGGAUCACCCAUGUAAUAUAUAUACAGGACCGGGAGUGUGGUAA [4.G]" quantity_measured="apparent KD of MS2 coat protein" obs_value=12.8
